- Target: T1, human SIRPα v2-Fc (SIRPα2 extracellular domain fused to human IGHG1_Fc) (human, UniProt P78324 31-373; P0DOX5 223-449 = IgG part)
- T1 construct: as m38; also called V2 (e.g. SIRPα2); SIRPα V2:ESE
- Test description: BLI Octet, antigen-Fc on biosensor;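 note: antigen captured on the biosensor tip and then immersed in solutions of the test antibodies, which act as the analyte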

Binder	Kd [nM]
SIRPAB-2 (antibody, human IgG1, kappa, V domains shown) VH: QVQLQESGPGLVKPSQTLSLTCTVSGGSISSGGDYWAWIRQHPGKGLEWIGYIYPSGFTYYNPSLKSRVTISVDTSKNQFSLKLSSVTAADTAVYYCAREGYHSGMDVWGQGTTVTVSS VL: DIQMTQSPSSLSASVGDRVTITCQASQDISNYLNWYQQKPGKAPKLLIYDASNLATGVPSRFSGSGSGTDFTFTISSLQPEDIATYYCQQFAYLPWTFGGGTKVEIKR	10.7
SIRPAB-5 (antibody, human IgG1, kappa, V domains shown) VH: QVQLQESGPGLVKPSQTLSLTCTVSGGSISSGPAYWSWIRQHPGKGLEWIGTIYYSGSTFYNPSLKSRVTISVDTSKNQFSLKLSSVTAADTAVYYCAREGYHSGMDVWGQGTTVTVSS VL: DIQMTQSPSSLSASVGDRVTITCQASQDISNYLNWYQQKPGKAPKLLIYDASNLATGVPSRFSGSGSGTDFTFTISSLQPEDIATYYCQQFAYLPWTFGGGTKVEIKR	27.5
SIRPAB-7 (antibody, human IgG1, kappa, V domains shown) VH: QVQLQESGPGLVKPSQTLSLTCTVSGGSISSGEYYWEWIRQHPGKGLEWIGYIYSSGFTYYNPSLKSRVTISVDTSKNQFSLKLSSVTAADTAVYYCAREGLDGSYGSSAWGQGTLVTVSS VL: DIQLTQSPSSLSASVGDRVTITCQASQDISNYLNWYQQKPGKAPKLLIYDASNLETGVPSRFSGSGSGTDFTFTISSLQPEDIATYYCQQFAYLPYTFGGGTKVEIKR	13.2

Sourced from patent US20200102387A1
